target: Beta-2 adrenergic receptor (Homo sapiens) (UniProt P07550); experiment: agonist-driven loss of surface beta2AR – cell-based, FAP fluorogen, flow cytometry, single point, cherry pick 1, confirmation (AID 540358); conditions: Am2.2-beta2AR cells, at 10 µM
Sequence (P07550 whole entry, looked up): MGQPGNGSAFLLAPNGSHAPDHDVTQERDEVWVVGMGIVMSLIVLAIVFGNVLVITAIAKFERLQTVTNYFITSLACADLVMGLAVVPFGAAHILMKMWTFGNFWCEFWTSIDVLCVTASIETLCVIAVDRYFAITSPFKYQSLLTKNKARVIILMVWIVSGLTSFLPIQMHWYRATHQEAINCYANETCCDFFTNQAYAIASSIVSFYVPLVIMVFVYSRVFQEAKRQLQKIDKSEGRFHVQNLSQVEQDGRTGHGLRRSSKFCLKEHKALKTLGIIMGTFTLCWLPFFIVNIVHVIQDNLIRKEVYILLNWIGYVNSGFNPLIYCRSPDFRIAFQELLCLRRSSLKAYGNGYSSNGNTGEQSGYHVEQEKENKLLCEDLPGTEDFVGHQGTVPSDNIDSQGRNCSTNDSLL
The campaign covered roughly 1,100 compounds. About 260 (24%) were called active.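 How the source made its calls: active means surface receptor percent response at or below 58%, roughly 3 SD from nonfluorescent compounds; inactive means the rest.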 A selection follows.
Result category, one only: active, inactive

CC(=O)Nc1ccc(CN2CCC(Oc3ccc(C(=O)N4CCCC4)cc3)CC2)cc1 :: inactive

Lab log entry: `CC(=O)c1cccc(NC(=O)COc2ccc(S(=O)(=O)N3CCOCC3)cc2)c1` — outcome as called in the assay?
inactive

Given `CC(=O)c1ccc(NC(=O)c2ccc3c(Cl)c4c(nc3c2)CCCC4)cc1` , state the outcome it received in this test.
inactive

Outcome? `COc1ccc(-n2nc3c(N4CCC(C(=O)NCc5ccccc5)CC4)nnc(C)c3c2C)cc1`
inactive

What is the recorded call for this compound in the test? O=C(Nc1ccc2c(c1)OCCO2)C(c1ccc(F)cc1)N1CCCCC1 (stereo not drawn)
inactive

So what was the verdict on COc1ccc(C(CCNCc2ccccc2F)c2ccc(F)cc2)cc1 (stereo not drawn) in this test?
inactive

###

target: Beta-2 adrenergic receptor (Homo sapiens) (UniProt P07550); assay: agonist-driven loss of surface beta2AR – cell-based, FAP fluorogen, flow cytometry, single point, cherry pick 1, confirmation (AID 540358); conditions: Am2.2-beta2AR cells, at 10 µM
Hit rate of the full screen: of about 1,100 compounds, about 260 (24%) were called active.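 How the source made its calls: active means surface receptor percent response at or below 58%, roughly 3 SD from nonfluorescent compounds; inactive means the rest.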 The list is a sample of the results.
Permitted responses: true (1) (active), false (0) (inactive)

Cc1ccc(Cl)cc1NC(=O)CN1CCN(S(=O)(=O)N2CCOCC2)CC1 :: false (0)

For the next question, use this molecule.
Outcome? `CSc1ccc(CCNC(=O)C2CCN(c3nnc(-n4cccc4)s3)CC2)cc1`
false (0)

###

target: Beta-2 adrenergic receptor (Homo sapiens) (UniProt P07550); experiment: agonist-driven loss of surface beta2AR – cell-based, FAP fluorogen, flow cytometry, single point, cherry pick 1, confirmation (AID 540358); settings: Am2.2-beta2AR cells, at 10 µM
The whole screen tested about 1,100 compounds, of which about 260 (24%) were called active.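 Rule for the calls: active = surface receptor percent response at or below 58%, roughly 3 SD from nonfluorescent compounds; inactive = the rest.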 A selection follows.
The reply should name one outcome from Y = active, N = inactive

Please review the entries below; each comes with its answer.
COc1cc(C#Cc2ccc3cc(CCCO)oc(=O)c3c2)cc(OC)c1 :: N
COc1ccc2c(c1OC)C(=O)OC2Nc1nc(-c2ccccc2)cs1 (stereo not given) :: N
Cc1ccc(Sc2cc(N3CCOCC3)nc(-c3ccccc3)n2)cc1 :: Y
O=C(C1CCN(c2nnc(-n3cccc3)s2)CC1)N1CCc2ccccc2C1 :: N

Now, please, on to the next compound.
Identify the outcome logged in this assay for the compound shown: `CCOc1ccccc1NC(=O)COc1ccc(S(=O)(=O)N2CCCC2)cc1`
N

src = PubChem BioAssay AID540358
